- test-details: gradient 5% acetonitrile 3 min, to 50% in 2 min, to 85% in 15 min, held 3 min, 100 µL/min
- test-settings: column: Zorbax Extend-C18 2.1 x 50 mm; eluents: water / acetonitrile, 0.1% formic acid
Quick list: RP-LC retention time per entry.
metric: RP-LC retention time

> print(dat)
                                    compound                metric   value
 1  O=C(NCc1ccco1)c1cccc2c1CCN2C(=O)c1ccc(F)cc1  RP-LC retention time   836 s
 2  O=C(Cc1c(Sc2ccc(F)cc2)[nH]c2ccccc12)N1CCN(c2ncccn2)CC1  RP-LC retention time   966 s
 3  CN1C(=O)c2cccn2CC1C(=O)NCc1cccs1 (stereo not given)  RP-LC retention time   654 s
 4  Cc1noc(-c2ccnc(-n3cnc(C(=O)NCCc4ccccc4)c3)c2)n1  RP-LC retention time   823 s
 5  COc1ccc(S(=O)(=O)N2CCC(OCCOc3ccccc3)CC2)cc1  RP-LC retention time  1070 s
 6  Cc1nnc2ccc(S(=O)(=O)N(Cc3ccccc3)c3cccc(F)c3)cn12  RP-LC retention time   866 s
 7  COCCCNC(=O)CN1C(=O)CCn2nc(-c3cn(C)c4ccccc34)cc21  RP-LC retention time   685 s
 8  Cc1ccc2[nH]c(=O)c(CCC(=O)NCCCN3CCCC3=O)cc2c1  RP-LC retention time   608 s
 9  CCOc1ccc(NC(=O)C2CCN(S(C)(=O)=O)c3cc(Cl)ccc3O2)cc1 (stereo not given)  RP-LC retention time   877 s
10  COc1cccc(-c2cc3c(=O)n(CC(O)c4ccccc4)ccn3n2)c1 (stereo not given)  RP-LC retention time   860 s
11  C=CCNC(=O)c1cnn(-c2cc(-c3nc(C(C)C)no3)ccn2)c1C  RP-LC retention time   776 s
12   Cn1cnnc1SCCNC(=O)CNC(=O)c1ccc(=O)[nH]c1  RP-LC retention time   494 s
13  O=C(NCc1cccs1)C1CCN(c2cnc(N3CCSCC3)nc2)CC1  RP-LC retention time   751 s
14  O=C(NCc1csc(-c2cccs2)n1)C1CCN(S(=O)(=O)c2ccccc2F)CC1  RP-LC retention time   860 s
15     CCCCn1c(CNC(=O)c2cccs2)nnc1SCC(=O)OCC  RP-LC retention time   713 s
16  O=C(Cc1c(F)cccc1Cl)NC1CCN(c2cc(-c3cccs3)[nH]n2)C1 (stereo not given)  RP-LC retention time   747 s
17  COc1cccc(NC(=O)C2(C)Oc3cccnc3N(C)C2=O)c1 (stereo not given)  RP-LC retention time   808 s
18  COCCCNC(=O)C(C)n1nc(C)c2c(C)n(-c3ccccc3)nc2c1=O (stereo not given)  RP-LC retention time   686 s
19  O=C(Cc1cccc(F)c1)N1CCC2(C1)C(=O)Nc1ccccc12 (stereo not given)  RP-LC retention time   713 s
20  Cc1ccc(OCC(=O)Nc2nnc(C3CC(=O)N(c4ccc(Cl)cc4)C3)o2)cc1 (stereo not given)  RP-LC retention time   788 s

====

Quick list: RP-LC retention time per entry.
- test-details: gradient 5% acetonitrile 3 min, to 50% in 2 min, to 85% in 15 min, held 3 min, 100 µL/min
- test-settings: column: Zorbax Extend-C18 2.1 x 50 mm; eluents: water / acetonitrile, 0.1% formic acid
metric: RP-LC retention time

> print(dat)
                                    compound  value
 1  CC(=O)N1C[C@@H]2CCCN3CCC[C@@H]([C@H]23)[C@H]1CCCC(=O)N(C)CCc1c(C)nn(C)c1C  556 s
 2  Cc1cc(C)cc(N2C(=O)CN(S(C)(=O)=O)CC2(C)C(=O)NCc2ccccc2)c1 (centres undefined)  851 s
 3  CCn1c(=O)sc2cc(S(=O)(=O)N3CCC(C(=O)N4CCCCC4)CC3)ccc21  845 s
 4  C[C@@H]1CCN(C(=O)C(CCCN=C(N)N)NS(=O)(=O)c2cccc3c2NC[C@H](C)C3)C(C(=O)O)C1 (some centres undefined)  767 s
 5  COc1cc(NS(=O)(=O)c2cc3n(c2)CCCN(C)C3=O)cc(OC)c1  672 s
 6         O=C(Cn1ccc2ccccc21)NCc1c(F)cccc1F  826 s
 7  O=C(NC1CC1)c1cccc2c1CCN2C(=O)c1ccc(F)cc1  739 s
 8  Cn1cnc2c(C(=O)Nc3ccc(Cl)cc3)nn(-c3ccccc3)c2c1=O  954 s
 9  CCn1c(=O)c(C)nc2cc(-c3noc(C4CC(=O)N(c5ccc(C)c(C)c5)C4)n3)ccc21 (centres undefined)  954 s
10  Cc1ccc(C(=O)N2CCC(n3cnnc3-c3ccccc3)C2)cn1 (centres undefined)  573 s
11          O=C(CSc1nncc2ccccc12)NCCc1ccccc1  687 s
12  Cc1cccc(NC(=O)Cn2nc3nc(N4CCCC(C)C4)ccn3c2=O)c1 (centres undefined)  791 s
13  O=C(CCCc1nnc2c(=O)n(-c3ccc(F)cc3)ccn12)NCCc1c[nH]c2ccccc12  699 s
14  Cc1ccc(CN(C(=O)C(C)Oc2cccc(C)c2C)C2CCS(=O)(=O)C2)o1 (centres undefined)  977 s
15         Cc1ccc(C)c(-c2csc(Nc3ccccn3)n2)c1  821 s
16  CCCOc1ccc(S(=O)(=O)NCC2CCN(C(=O)c3ccccc3F)CC2)cc1C  598 s
17  CS(=O)(=O)N(C1CCOCC1)C1CN(C(=O)c2n[nH]c3ccccc23)C1  663 s
18  O=C(O)C(Cc1c[nH]c2ccccc12)N1C(=O)c2ccccc2C1=O (centres undefined)  858 s
19  CCCn1cc(CCNS(=O)(=O)c2ccc(C)cc2C)c2cccnc21  924 s

====

Quick list: RP-LC retention time per entry.
- test-details: gradient 5% acetonitrile 3 min, to 50% in 2 min, to 85% in 15 min, held 3 min, 100 µL/min
- test-settings: column: Zorbax Extend-C18 2.1 x 50 mm; eluents: water / acetonitrile, 0.1% formic acid
metric: RP-LC retention time (s)

> print(dat)
                                    molecule  value
 1  O=C(NC1CC1)c1ccc(OCC2CCN(C(=O)Cc3ccc(Cl)cc3)CC2)cc1    868
 2  CCCC(=O)NC1CCN(c2cc(C)cc(C)c2)C1=O (stereo not given)    750
 3  Cc1ccc([N+](=O)[O-])cc1NC(=O)Nc1ccc(S(N)(=O)=O)cc1    786
 4  CCCN(CCc1cccs1)C1CCc2c(O)cccc2C1 (stereo not given)    757
 5  Cc1nc(-c2csc(S(=O)(=O)N3CCCC(C(=O)Nc4ccc(Cl)cc4)C3)c2)no1 (stereo not given)   1040
 6  O=C(NCc1ccc(Cl)cc1)NCC(O)Cc1ccccc1 (stereo not given)    721
 7  CC1CCN(C(=O)c2nnc(-c3ccc(S(=O)(=O)N4CCC(C)CC4)cc3)o2)CC1   1120
 8  COc1ccc(CN(Cc2ccccc2)Cc2cc(=O)n3cc(C)ccc3n2)cc1OC    616
 9  Cc1nc(-c2cc(S(=O)(=O)N3CCCCC3C)c(C)s2)sc1C (stereo not given)   1220
10  CC(=O)Nc1ccc2c(c1)CN(C(=O)c1ccccc1F)C(C(=O)N1CCCC1)C2 (stereo not given)    646

====

Quick list: RP-LC retention time per entry.
- test-details: gradient 5% acetonitrile 3 min, to 50% in 2 min, to 85% in 15 min, held 3 min, 100 µL/min
- test-settings: column: Zorbax Extend-C18 2.1 x 50 mm; eluents: water / acetonitrile, 0.1% formic acid
metric: RP-LC retention time (s)

> print(dat)
                                    molecule                metric  unit.annotation  value
 1  CN1CCN(CCNC(=O)c2cc(-c3cccnc3)nc3ccc(Br)cc23)CC1  RP-LC retention time                s    585
 2         CN(CC1CCOCC1)C(=O)Nc1cc(F)cc(F)c1  RP-LC retention time                s    754
 3  O=C(Cn1nc(N2CCOCC2)c2ccccc2c1=O)Nc1ccccc1C(F)(F)F  RP-LC retention time                s    804
 4  CC(C)CN(CC(C)C)C(=O)CCCN1C(=O)c2ccccc2C1=O  RP-LC retention time                s    947
 5  Cc1ccccc1-n1c(=O)c2sccc2n(Cc2nc(-c3ccc(F)c(Cl)c3)no2)c1=O  RP-LC retention time                s   1110
 6  COc1ccc(CCN2C(=O)C(NC(C)=O)(C(F)(F)F)C3=C2CC(C)(C)CC3=O)cc1OC (stereo not given)  RP-LC retention time                s    760
 7  O=C(c1ccoc1)N1CCCC(Nc2ncnc3c2CCC3)C1 (stereo not given)  RP-LC retention time                s    574
 8         COc1ncc(C(=O)Nc2ccc(Cl)cc2)c(C)n1  RP-LC retention time                s    786
 9  Cc1c(-c2ccnc(N3CCOCC3)n2)cnc2nc(-c3ccccc3)nn12  RP-LC retention time                s    885
10  CN1CCc2nnc(C3CCN(C(=O)Nc4cc(F)cc(F)c4)C3)n2CC1 (stereo not given)  RP-LC retention time                s    593
11  CCn1c(=O)sc2cc(S(=O)(=O)N3CCC(C(=O)N(C)C4CCCCC4)CC3)ccc21  RP-LC retention time                s    958
12        CCn1cc(C(=O)Nc2ccc(C)cc2)c2cccnc21  RP-LC retention time                s    859
13  COc1cc(NC(=O)Cc2csc3nc(-c4ccccc4)cn23)cc(OC)c1OC  RP-LC retention time                s    749
14  COc1ccc(N2CCN(c3cc(SCC(=O)Nc4ccccc4OC)ncn3)CC2)cc1  RP-LC retention time                s   1040
15  Cc1nn(-c2ccc(Cl)cc2)c(C)c1S(=O)(=O)N1CCC(C(=O)Nc2ccccc2F)CC1  RP-LC retention time                s   1020
16  CN1C(=O)c2ccccc2Sc2cc(-c3noc(CNC(=O)c4ccco4)n3)ccc21  RP-LC retention time                s    702
17  COc1ccc(C2=NC3(CCN(C(C)C)CC3)NC(c3cccc(OC)c3O)C2)cc1OC (stereo not given)  RP-LC retention time                s    575
18  O=C(Nc1ccccc1F)NC1CCCN(c2cc(-c3ccncc3)[nH]n2)C1 (stereo not given)  RP-LC retention time                s    621
19  CCOC(=O)c1ccccc1NC(=O)Cn1nc2n(c1=O)CCCCC2  RP-LC retention time                s    821
20  O=C(O)c1cn(CCc2ccccc2)nc1S(=O)(=O)N1CCSCC1  RP-LC retention time                s    838

Values from the METLIN SMRT retention time set (Domingo-Almenara et al. 2019)
